- system: Human Calpain 9/NS1 (Homo sapiens, UniProt O14815)
- Sequence (O14815 whole entry): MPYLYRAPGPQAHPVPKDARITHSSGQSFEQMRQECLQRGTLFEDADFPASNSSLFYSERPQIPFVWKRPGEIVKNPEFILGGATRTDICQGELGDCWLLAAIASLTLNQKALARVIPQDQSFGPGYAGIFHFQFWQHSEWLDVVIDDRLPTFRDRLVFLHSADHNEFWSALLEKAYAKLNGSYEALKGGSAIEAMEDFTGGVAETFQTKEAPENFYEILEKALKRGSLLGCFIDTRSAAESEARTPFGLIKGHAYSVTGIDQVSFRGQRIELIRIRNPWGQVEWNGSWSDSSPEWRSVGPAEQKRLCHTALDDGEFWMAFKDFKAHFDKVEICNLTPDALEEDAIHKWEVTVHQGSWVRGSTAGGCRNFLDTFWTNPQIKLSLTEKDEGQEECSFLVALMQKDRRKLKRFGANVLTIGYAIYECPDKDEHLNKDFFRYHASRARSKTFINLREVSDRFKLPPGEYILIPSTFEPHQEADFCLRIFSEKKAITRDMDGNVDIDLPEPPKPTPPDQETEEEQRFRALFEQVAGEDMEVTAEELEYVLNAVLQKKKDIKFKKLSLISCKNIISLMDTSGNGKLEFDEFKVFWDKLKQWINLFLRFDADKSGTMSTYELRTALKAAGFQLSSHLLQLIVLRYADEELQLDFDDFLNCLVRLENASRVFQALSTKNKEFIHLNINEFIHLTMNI
- Sequence (P04632 whole entry partner): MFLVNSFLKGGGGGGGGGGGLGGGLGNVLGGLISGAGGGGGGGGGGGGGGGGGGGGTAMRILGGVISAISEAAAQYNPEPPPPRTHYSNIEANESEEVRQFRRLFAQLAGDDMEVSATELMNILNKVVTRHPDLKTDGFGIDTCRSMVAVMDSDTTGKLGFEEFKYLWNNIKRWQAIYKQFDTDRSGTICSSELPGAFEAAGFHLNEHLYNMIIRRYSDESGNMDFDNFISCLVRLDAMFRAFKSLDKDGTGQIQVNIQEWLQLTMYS
- test protocol: Biochemical inhibition of calpain 9, continuous fluorescence (FRET substrate) assay
- applied conditions: mean, read-out: Human Calpain 9/NS1 IC50 (nM)_MEAN
endpoint label: IC50

*Q* State the recorded IC50 for this entry: COc1cc(CNC(=O)C(=O)C2CCCCOCCOCc3ccccc3C(=O)N2)cc(OC)c1 (stereo not shown)
*A* < 3000 nM

*Q* State the recorded IC50 for this entry: CCOC(=O)CCNC(=O)C(=O)[C@@H]1CCCCOCCOCc2ccccc2C(=O)N1
*A* 3000 to 10000 nM

*Q* State the recorded IC50 for this entry: COc1cccc(CN(C)C(=O)C(=O)C2CCCCOCCOCc3ccccc3C(=O)N2)c1 (stereo not shown)
*A* > 10000 nM

*Q* State the recorded IC50 for this entry: NC(=O)C(=O)[C@@H]1CCCCCOc2ccnc(n2)-c2ccccc2C(=O)N1
*A* < 3000 nM

*Q* State the recorded IC50 for this entry: O=C(NCc1ccccc1)C(=O)[C@@H]1C/C=C\COCCOCc2ccccc2C(=O)N1
*A* < 3000 nM

*Q* State the recorded IC50 for this entry: O=C[C@@H]1CC=CCOCCCOCc2ccccc2C(=O)N1
*A* < 3000 nM

*Q* State the recorded IC50 for this entry: COc1cccc(CCNC(=O)C(=O)C2CCCCOCCOCc3ccccc3C(=O)N2)c1 (stereo not shown)
*A* < 3000 nM

*Q* State the recorded IC50 for this entry: Cc1cccc(C)c1NC(=O)C(=O)[C@@H]1CCCCOCCOCc2ccccc2C(=O)N1
*A* > 10000 nM

*Q* State the recorded IC50 for this entry: O=C[C@@H]1Cc2cccc(c2)CCCCOc2cccc(c2)-c2ncccc2C(=O)N1
*A* < 3000 nM

*Q* State the recorded IC50 for this entry: O=C[C@@H]1CCCCCOc2ccc(F)c(c2)-c2ccccc2C(=O)N1
*A* < 3000 nM

*Q* State the recorded IC50 for this entry: O=C[C@@H]1Cc2ccc(cc2)OCCCCOc2ccc3c(cnn3-c3ncccc3C(=O)N1)c2
*A* < 3000 nM

*Q* State the recorded IC50 for this entry: O=C(NCc1ccccc1)C(=O)[C@@H]1C/C=C/COCCOCc2ccccc2C(=O)N1
*A* < 3000 nM

*Q* State the recorded IC50 for this entry: CCNC(=O)C(=O)[C@@H]1CCCCCCCCCCc2ccccc2C(=O)N1
*A* > 10000 nM

*Q* State the recorded IC50 for this entry: O=C(NCc1ccc(Cl)cc1Cl)C(=O)C1CCCCOCCOCc2ccccc2C(=O)N1 (stereo not shown)
*A* 3000 to 10000 nM

*Q* State the recorded IC50 for this entry: O=C[C@@H]1CC=CCOCCn2ccc3cccc(c32)C(=O)N1
*A* < 3000 nM

*Q* State the recorded IC50 for this entry: C/C1=C\C[C@@H](C=O)NC(=O)c2cc(C)nn2-c2cccc(c2)OCC1
*A* < 3000 nM

*Q* State the recorded IC50 for this entry: O=C[C@@H]1C/C=C/CCCCCCc2ccccc2C(=O)N1
*A* < 3000 nM

*Q* State the recorded IC50 for this entry: Cc1cccc(C)c1NC(=O)C(=O)[C@@H]1C/C=C\COCCOCc2ccccc2C(=O)N1
*A* > 10000 nM

*Q* State the recorded IC50 for this entry: C#CCNC(=O)C(=O)C1CCCCOCCOCc2ccccc2C(=O)N1 (stereo not shown)
*A* 3000 to 10000 nM

*Q* State the recorded IC50 for this entry: O=C(NC1CC1)C(=O)[C@@H]1C/C=C/COCCOCc2ccccc2C(=O)N1
*A* 3000 to 10000 nM

*Q* State the recorded IC50 for this entry: CCOC(=O)CNC(=O)C(=O)[C@@H]1CCCCOCCOCc2ccccc2C(=O)N1
*A* < 3000 nM

*Q* State the recorded IC50 for this entry: O=C(NCc1ccc(OC(F)(F)F)cc1)C(=O)C1CCCCOCCOCc2ccccc2C(=O)N1 (stereo not shown)
*A* < 3000 nM

*Q* State the recorded IC50 for this entry: O=C(NCCc1cccnc1)C(=O)C1CCCCOCCOCc2ccccc2C(=O)N1 (stereo not shown)
*A* 3000 to 10000 nM

*Q* State the recorded IC50 for this entry: CCNC(=O)C(=O)[C@@H]1C/C=C/CCCCCCCc2ccccc2C(=O)N1
*A* > 10000 nM

*Q* State the recorded IC50 for this entry: O=C[C@@H]1Cc2ccc(cc2)OCCCCOc2cccc(c2)-c2ccn(n2)-c2ncccc2C(=O)N1
*A* < 3000 nM

*Q* State the recorded IC50 for this entry: O=C(NCCc1ccc(Cl)cc1)C(=O)[C@@H]1C/C=C/COCCOCc2ccccc2C(=O)N1
*A* < 3000 nM

*Q* State the recorded IC50 for this entry: O=C[C@@H]1Cc2ccc(cc2)CC=CCc2cccc(c2)-c2ccn(n2)-c2ncccc2C(=O)N1
*A* < 3000 nM

*Q* State the recorded IC50 for this entry: COc1ccc(CNC(=O)C(=O)C2CCCCOCCOCc3ccccc3C(=O)N2)cc1 (stereo not shown)
*A* < 3000 nM

*Q* State the recorded IC50 for this entry: O=C[C@@H]1Cc2ccccc2CCCOCc2ccccc2C(=O)N1
*A* < 3000 nM

*Q* State the recorded IC50 for this entry: NC(=O)C(=O)[C@@H]1CCCCCOc2cccc(c2)-c2ncccc2C(=O)N1
*A* < 3000 nM

*Q* State the recorded IC50 for this entry: COc1ccc(CCNC(=O)C(=O)C2CCCCOCCOCc3ccccc3C(=O)N2)cc1OC (stereo not shown)
*A* 3000 to 10000 nM

*Q* State the recorded IC50 for this entry: O=C1NC(C(=O)C(=O)N2CCOCC2)CCCCOCCOCc2ccccc21 (stereo not shown)
*A* > 10000 nM

*Q* State the recorded IC50 for this entry: CCNC(=O)C(=O)[C@@H]1C/C=C/CCCCCCc2ccccc2C(=O)N1
*A* > 10000 nM

*Q* State the recorded IC50 for this entry: O=C(NCCc1ccccn1)C(=O)C1CCCCOCCOCc2ccccc2C(=O)N1 (stereo not shown)
*A* 3000 to 10000 nM
